target: ClfB (Staphylococcus aureus); construct: The fragment of the ClfB gene (corresponding 197–542 aa) was amplified by PCR; His-tag; made in house; host or cells: E. coli BL21; assay: SPR (BIAcore T200) alanine scan of 9-residue GSR peptides and the 6-residue peptide on immobilized ClfB; format: binding; conditions: SPR BIAcore T200, 10°C; ClfB amine-coupled (~5300 RU) on CM5 chip; peptides 31.25-2000 µM in 10 mM HEPES pH 7.4, 150 mM NaCl, 0.005% Tween 20; 30 µl/min; 1:1 Langmuir fit
Sequence (O86476 197-542): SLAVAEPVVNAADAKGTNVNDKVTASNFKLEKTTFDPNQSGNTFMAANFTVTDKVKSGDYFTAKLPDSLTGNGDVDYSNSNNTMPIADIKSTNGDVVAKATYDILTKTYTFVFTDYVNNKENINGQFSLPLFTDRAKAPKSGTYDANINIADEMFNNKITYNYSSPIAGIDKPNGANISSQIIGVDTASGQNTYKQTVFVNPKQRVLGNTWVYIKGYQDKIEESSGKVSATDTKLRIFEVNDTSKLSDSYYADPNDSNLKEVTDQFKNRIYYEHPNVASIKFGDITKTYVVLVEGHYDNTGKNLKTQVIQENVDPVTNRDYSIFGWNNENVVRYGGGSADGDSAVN
pKd: −log10 of the molar value. Where no end group is shown, it is not given here.
Outcome: criterion met for pKd of at least 3; criterion not met for anything lower.

Past entries and their recorded results:
| SUBSTANCE | ASSIGNED_CATEGORY |
| --- | --- |
| GSSGSASNG [Peptide7] | criterion not met |
| GSSGAGSNG [Peptide6] | criterion met |

Ask: API: above_or_equal(metric=pKd, cutoff=3) for item GSAGSGSNG [Peptide4]
Reply: criterion met

Ask: API: above_or_equal(metric=pKd, cutoff=3) for item GSSGSGSAG [Peptide9]
Reply: criterion met

Ask: API: above_or_equal(metric=pKd, cutoff=3) for item GSSGSGANG [Peptide8]
Reply: criterion met

Ask: API: above_or_equal(metric=pKd, cutoff=3) for item ASSGSGSNG [Peptide2]
Reply: criterion not met
